Each recorded value in this set is attributed to the OligoGym collection.

What normalised inhibition (eCFP-eYFP dual reporter) was measured for each of the following?
- target_desc: Mmp7 (rat); note: test concentration or dose not given here
- protocol_description: reporter assay of Huesken 2005
- test_context: siRNA
Oligonucleotides are given in HELM: sugar(base)linkage, 5' to 3'; d 2'-deoxyribose, r ribose, m 2'-O-methylribose, p phosphate. ss, as = sense and antisense strand
Answers are plain numbers, in %.

Below: 4 substances and their reported normalised inhibition (eCFP-eYFP dual reporter).
substance	readout_number
RNA1{r(G)p.r(A)p.r(A)p.r(A)p.r(C)p.r(A)p.r(C)p.r(U)p.r(C)p.r(U)p.r(A)p.r(G)p.r(G)p.r(C)p.r(C)p.r(A)p.r(U)p.r(G)p.r(C)p.d(T)p.d(T)}|RNA2{r(G)p.r(C)p.r(A)p.r(U)p.r(G)p.r(G)p.r(C)p.r(C)p.r(U)p.r(A)p.r(G)p.r(A)p.r(G)p.r(U)p.r(G)p.r(U)p.r(U)p.r(U)p.r(C)p.d(C)p.d(T)}$$$RNA1{StrandType:ss}|RNA2{StrandType:as}$	53.7
RNA1{r(G)p.r(G)p.r(A)p.r(C)p.r(U)p.r(C)p.r(A)p.r(G)p.r(G)p.r(C)p.r(G)p.r(U)p.r(G)p.r(A)p.r(A)p.r(C)p.r(U)p.r(U)p.r(C)p.d(T)p.d(T)}|RNA2{r(G)p.r(A)p.r(A)p.r(G)p.r(U)p.r(U)p.r(C)p.r(A)p.r(C)p.r(G)p.r(C)p.r(C)p.r(U)p.r(G)p.r(A)p.r(G)p.r(U)p.r(C)p.r(C)p.d(T)p.d(C)}$$$RNA1{StrandType:ss}|RNA2{StrandType:as}$	70.4
RNA1{r(U)p.r(G)p.r(U)p.r(U)p.r(U)p.r(G)p.r(U)p.r(U)p.r(G)p.r(C)p.r(C)p.r(A)p.r(C)p.r(U)p.r(C)p.r(A)p.r(U)p.r(G)p.r(A)p.d(T)p.d(T)}|RNA2{r(U)p.r(C)p.r(A)p.r(U)p.r(G)p.r(A)p.r(G)p.r(U)p.r(G)p.r(G)p.r(C)p.r(A)p.r(A)p.r(C)p.r(A)p.r(A)p.r(A)p.r(C)p.r(A)p.d(G)p.d(G)}$$$RNA1{StrandType:ss}|RNA2{StrandType:as}$	105
RNA1{r(C)p.r(A)p.r(U)p.r(A)p.r(A)p.r(U)p.r(U)p.r(G)p.r(G)p.r(C)p.r(U)p.r(U)p.r(C)p.r(G)p.r(C)p.r(A)p.r(A)p.r(G)p.r(G)p.d(T)p.d(T)}|RNA2{r(C)p.r(C)p.r(U)p.r(U)p.r(G)p.r(C)p.r(G)p.r(A)p.r(A)p.r(G)p.r(C)p.r(C)p.r(A)p.r(A)p.r(U)p.r(U)p.r(A)p.r(U)p.r(G)p.d(A)p.d(T)}$$$RNA1{StrandType:ss}|RNA2{StrandType:as}$	63.1

API: the following record is the query input.
Missing value: normalised inhibition (eCFP-eYFP dual reporter), Mmp7 (rat), entry "RNA1{r(G)p.r(G)p.r(C)p.r(G)p.r(C)p.r(A)p.r(G)p.r(A)p.r(A)p.r(U)p.r(U)p.r(A)p.r(U)p.r(C)p.r(U)p.r(U)p.r(A)p.r(G)p.r(G)p.d(T)p.d(T)}|RNA2{r(C)p.r(C)p.r(U)p.r(A)p.r(A)p.r(G)p.r(A)p.r(U)p.r(A)p.r(A)p.r(U)p.r(U)p.r(C)p.r(U)p.r(G)p.r(C)p.r(G)p.r(C)p.r(C)p.d(T)p.d(G)}$$$RNA1{StrandType:ss}|RNA2{StrandType:as}$" . Fill in? 134
